# target.of.assay: T1, MICB005-ECD-HISAvi (human, UniProt Q29980 24-309)
# T1 construct: Two sources under one name in the two kinetic assays; also called MICB005 polypeptide
# T1 sequence: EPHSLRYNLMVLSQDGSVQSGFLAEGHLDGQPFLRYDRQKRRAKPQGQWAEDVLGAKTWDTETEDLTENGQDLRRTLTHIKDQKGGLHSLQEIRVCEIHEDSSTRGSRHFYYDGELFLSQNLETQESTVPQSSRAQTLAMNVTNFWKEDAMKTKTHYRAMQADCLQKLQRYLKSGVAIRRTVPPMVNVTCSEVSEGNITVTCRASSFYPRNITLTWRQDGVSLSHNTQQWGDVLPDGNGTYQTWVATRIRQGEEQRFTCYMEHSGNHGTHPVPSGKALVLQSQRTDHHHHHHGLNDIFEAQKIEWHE
# test.method.notes: SPR (Carterra); antibody captured by anti-human Fc, monomeric ECD antigen injected
assay.metric: Kd

1D5 (antibody, human IgG1, kappa, V domains shown, also called ID5) VH: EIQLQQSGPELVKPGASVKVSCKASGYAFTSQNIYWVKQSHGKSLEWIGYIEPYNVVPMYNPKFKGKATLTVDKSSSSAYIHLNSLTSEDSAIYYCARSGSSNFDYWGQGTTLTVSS VL: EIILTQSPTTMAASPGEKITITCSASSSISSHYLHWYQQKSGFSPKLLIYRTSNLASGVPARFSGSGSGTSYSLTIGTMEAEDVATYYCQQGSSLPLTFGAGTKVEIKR: 0.96 nM
13A9 (antibody, human IgG1, kappa, V domains shown) VH: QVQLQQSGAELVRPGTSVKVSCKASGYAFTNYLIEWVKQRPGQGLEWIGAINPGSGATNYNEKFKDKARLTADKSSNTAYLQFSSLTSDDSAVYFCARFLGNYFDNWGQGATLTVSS VL: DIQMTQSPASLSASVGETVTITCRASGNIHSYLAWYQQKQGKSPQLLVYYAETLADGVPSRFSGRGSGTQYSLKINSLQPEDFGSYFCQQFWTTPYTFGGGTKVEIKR: 0.486 nM
D2M001-001 (antibody, V domains shown, only the CDRs are tied to the name in the text; copies: 2 + 2) VH: QVQLVQSGAEVKKPGSSVKVSCKASGYTFSHHSISWVRQAPGQGLEWIGGIYPGKIKTNYAQKFQGRATLTADKSTSTAYMELSSLRSEDTAVYYCATLYGNYEAYWGQGTLVTVSS VL: DIQMTQSPSSLSASVGDRVTITCRASENIYGALNWYQQKPGKSPKLLIYGTTSLQSGVPSRFSGSGSGRDYTLTISSLQPEDFATYYCQNVLTTPPWTFGGGTKVEIK: 158 nM

API: the following record is the query input.
The reported value for 3F9 (antibody, human IgG1, kappa, V domains shown, also called benchmark 3F9) VH: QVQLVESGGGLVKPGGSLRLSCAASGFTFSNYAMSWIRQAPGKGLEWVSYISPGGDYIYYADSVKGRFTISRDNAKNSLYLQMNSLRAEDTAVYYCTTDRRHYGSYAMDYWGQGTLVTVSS VL: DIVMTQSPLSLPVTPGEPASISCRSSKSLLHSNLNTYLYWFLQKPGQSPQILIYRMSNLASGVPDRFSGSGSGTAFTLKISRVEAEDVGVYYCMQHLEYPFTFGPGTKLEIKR in terms of Kd is 5.47 nM
